Just for reference, patent US20230348852A1 is where these values come from.

- Test system: B2M
- RUN_DESCRIPTION: sgRNA screening for B2M knockout in LSCs (nucleofection, FACS)
- Type: cell-based, human
- TEST_PARAMETERS: Cas9 protein SEQ ID NO: 106, LSCs at passage 3, FACS after around 3 days
VALUE_KIND: B2M knockout efficiency in LSCs after nucleofection (%)

{"columns": ["MOLECULE", "UNIT_ABBREVIATION", "RECORDED_RESULT"],
 "data": [
  ["1-CR004366: gRNA targeting human B2M; targeting domain SEQ ID NO: 108; sgRNA SEQ ID NO: 120; from Dharmacon (nucleic acid, listed as RNA, chemistry not given here, gRNA targeting human B2M; from Dharmacon) guide: GAGUAGCGCGAGCACAGCUAGUUUUAGAGCUAGAAAUAGCAAGUUAAAAUAAGGCUAGUCCGUUAUCAACUUGAAAAAGUGGCACCGAGUCGGUGCUUUU", "%", 55],
  ["5-CR004366: gRNA targeting human B2M; targeting domain SEQ ID NO: 112; sgRNA SEQ ID NO: 163; from Dharmacon (nucleic acid, listed as RNA, chemistry not given here, gRNA targeting human B2M; from Dharmacon) guide: CUGAAUCUUUGGAGUACCUGGUUUUAGAGCUAGAAAUAGCAAGUUAAAAUAAGGCUAGUCCGUUAUCAACUUGAAAAAGUGGCACCGAGUCGGUGCUUUU", "%", 2],
  ["CR000443: gRNA targeting human B2M; targeting domain SEQ ID NO: 135; sgRNA SEQ ID NO: 172 (nucleic acid, listed as RNA, chemistry not given here) guide: CGCGAGCACAGCUAAGGCCAGUUUUAGAGCUAGAAAUAGCAAGUUAAAAUAAGGCUAGUCCGUUAUCAACUUGAAAAAGUGGCACCGAGUCGGUGCUUUU", "%", 25],
  ["3-CR004366: gRNA targeting human B2M; targeting domain SEQ ID NO: 110; sgRNA SEQ ID NO: 161; from Dharmacon (nucleic acid, listed as RNA, chemistry not given here, gRNA targeting human B2M; from Dharmacon) guide: AAGUCAACUUCAAUGUCGGAGUUUUAGAGCUAGAAAUAGCAAGUUAAAAUAAGGCUAGUCCGUUAUCAACUUGAAAAAGUGGCACCGAGUCGGUGCUUUU", "%", 2]
]}
